Entry source: the supplement of paper PMC10567573

B1: TRIM39 (parent)
chain: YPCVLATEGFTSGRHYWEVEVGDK

Variants of: B1
PROTOCOL: protein stability index of a GFP-peptide fusion (GPS, HEK-293T) (PSI 1-6); higher = more stable;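 also: lentivirally expressed fusions sorted by FACS into six bins by GFP to DsRed ratio, PSI derived from sequencing read proportions per bin multiplied by bin number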
CONDITION_SUMMARY: c terminus: a fixed tail appended
# reported protein stability index; entries follow
// print number alone

F10V = 1.66

Value lookup for protein stability index; key = K24D 1.07

Value lookup for protein stability index; key = E20C 2.73

Value lookup for protein stability index; key = D23Y 1.91

Value lookup for protein stability index; key = G22Y 1.98

Value lookup for protein stability index; key = G22R 1.75
